Biological target: CXCR3 (Homo sapiens)
Sequence (P49682 1-368): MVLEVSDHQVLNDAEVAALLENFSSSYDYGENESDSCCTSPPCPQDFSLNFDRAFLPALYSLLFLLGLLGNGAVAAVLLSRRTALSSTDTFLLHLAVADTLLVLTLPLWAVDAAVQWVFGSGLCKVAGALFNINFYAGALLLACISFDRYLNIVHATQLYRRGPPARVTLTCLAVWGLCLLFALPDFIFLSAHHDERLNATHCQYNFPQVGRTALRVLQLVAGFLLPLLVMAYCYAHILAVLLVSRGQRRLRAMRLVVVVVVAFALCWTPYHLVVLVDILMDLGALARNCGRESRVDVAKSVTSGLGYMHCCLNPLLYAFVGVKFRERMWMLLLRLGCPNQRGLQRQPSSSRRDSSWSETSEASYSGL
Assay: Chemotaxis assay ITAC (CXCL11), L1.2-CXCR3 cells
Format: cell-based
Parameters: expressed in transfected cells
Conditions: 1 nM CXCL11 (I-TAC), 4 hours
Parameter Measured: pIC50
One number for each entry, as −log10 of the molar value.

Please look at this molecule and report its pIC50: N#Cc1ccc(S(=O)(=O)N(Cc2ccc(C(=O)NCC(O)c3ccccc3)cc2)Cc2ccccn2)cc1 (stereo not drawn)
7.70

Please look at this molecule and report its pIC50: CCOc1ccc(S(=O)(=O)N(Cc2ccc(-c3nnn[nH]3)cc2)Cc2ccccn2)cc1
5.99

Batch request: pIC50 per item, same order as input.
1. COC(=O)C(NC(=O)c1ccc(CN(Cc2ccccn2)S(=O)(=O)c2ccc(Cl)cc2)cc1)c1ccc(F)c(F)c1 (stereo not drawn)
2. NC(C(=O)Nc1ccc(CN(Cc2ccccn2)S(=O)(=O)c2ccc(Cl)cc2)cc1)c1ccccc1 (stereo not drawn)

[7.09, 7.03]

----------
Molecular target: CXCR3 (Homo sapiens, UniProt P49682)
Sequence (P49682 1-368): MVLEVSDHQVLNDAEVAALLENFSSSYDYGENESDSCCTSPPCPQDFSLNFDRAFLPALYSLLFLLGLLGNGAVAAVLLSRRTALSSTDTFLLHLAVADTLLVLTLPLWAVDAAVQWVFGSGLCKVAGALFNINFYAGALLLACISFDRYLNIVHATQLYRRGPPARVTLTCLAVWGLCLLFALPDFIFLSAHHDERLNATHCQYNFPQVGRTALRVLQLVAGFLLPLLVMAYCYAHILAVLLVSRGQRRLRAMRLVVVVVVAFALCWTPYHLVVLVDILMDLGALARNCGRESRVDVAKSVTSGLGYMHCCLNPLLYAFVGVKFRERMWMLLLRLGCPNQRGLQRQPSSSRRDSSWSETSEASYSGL
Assay: CXCR3 Ca2+ mobilization (FLIPR), stable hCXCR3-CHO cell line, I-TAC stimulated
Type: cell-based
Design: host or cells: CHO cells stably expressing hCXCR3
Conditions: hCXCR3-CHO cells, I-TAC 100 nM stimulated Ca2+ response; read-out: Ca-ITAC
Parameter Measured: IC50

Consider the following illustrative entries.
Please look at this compound and report its IC50: N#Cc1ccc(S(=O)(=O)N(Cc2ccc(C(=O)NC3(c4ccccc4)CC3)cc2)Cc2cccnc2)cc1 [Example 113]
0.32 µM

Please look at this compound and report its IC50: N#Cc1ccc(S(=O)(=O)N(Cc2ccc(C(=O)NC3(c4cccc(Cl)c4)CC3)cc2)Cc2ccccn2)cc1 [Example 123]
0.3 µM

Please look at this compound and report its IC50: CCOc1ccc(S(=O)(=O)N(Cc2ccc(C(=O)NCC(C)c3ccccc3)cc2)Cc2cccnc2)cc1 (stereo not shown) [Example 206]
4.5 µM

Batch request: IC50 per item, same order as input.
1. CC(=O)N1C[C@@H]2[C@H](C1)[C@H]2NC(=O)c1ccc(CN(Cc2ccccc2)S(=O)(=O)c2ccc(Cl)cc2)cc1 [Example 118]
2. CCOc1ccc(S(=O)(=O)N(Cc2ccc(C(=O)NCCc3ccc(S(N)(=O)=O)cc3)cc2)Cc2cccnc2)cc1 [Example 95]
3. CCOc1ccc(S(=O)(=O)N(Cc2ccc(C(=O)NCC(O)c3ccccc3)cc2)Cc2ccccn2)cc1 (stereo not shown) [Example 84]
4. C[C@H](c1ccc(NC(=O)C2(c3ccccc3)CC2)cc1)N(Cc1ccccn1)S(=O)(=O)c1ccc(Cl)cc1 [Example 168]

3 µM
2 µM
0.02 µM
3.33 µM

----------
Field: IC50. Provide a value for each of the compounds that follow.
Target: UniProtKB P49682
Sequence (P49682 1-368): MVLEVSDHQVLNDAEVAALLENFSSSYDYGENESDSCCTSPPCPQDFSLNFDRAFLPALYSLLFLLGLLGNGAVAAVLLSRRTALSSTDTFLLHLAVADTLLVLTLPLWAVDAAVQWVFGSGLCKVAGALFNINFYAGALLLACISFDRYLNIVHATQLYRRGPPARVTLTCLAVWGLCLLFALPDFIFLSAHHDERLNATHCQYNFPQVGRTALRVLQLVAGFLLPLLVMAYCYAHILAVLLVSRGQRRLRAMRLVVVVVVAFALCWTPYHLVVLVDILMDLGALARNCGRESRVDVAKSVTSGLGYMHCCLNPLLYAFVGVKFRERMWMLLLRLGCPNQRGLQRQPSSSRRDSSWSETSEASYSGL
Assay: Chemotaxis assay ITAC (CXCL11), L1.2-CXCR3 cells
Format: cell-based
Parameters: expressed in transfected cells
Conditions: 1 nM CXCL11 (I-TAC), 4 hours

Batch request: IC50 per item, same order as input.
1. N#Cc1ccc(S(=O)(=O)N(Cc2ccc(C(=O)NCc3cccnc3)cc2)Cc2ccccn2)cc1 [Example 136]
2. CC(C)(C)OC(=O)N1C[C@@H]2[C@H](C1)[C@H]2NC(=O)c1ccc(CN(Cc2ccccn2)S(=O)(=O)c2ccc(Cl)cc2)cc1 [Example 105]
3. N#Cc1ccc(S(=O)(=O)N(Cc2ccc(C(=O)NCc3ccccc3)cc2)Cc2ccccn2)cc1 [Example 138]
4. O=C(O)c1ccc(CN(Cc2ccccn2)S(=O)(=O)c2ccc(Cl)cc2)cc1F [Example 64]
5. COC(=O)c1ccc(CNC(=O)c2ccc(CN(Cc3ccccn3)S(=O)(=O)c3ccc(Cl)cc3)cc2)cc1 [Example 132]
6. C[C@@H](c1ccc(NC(=O)C2(c3ccccc3)CC2)cc1)N(Cc1ccccn1)S(=O)(=O)c1ccc(Cl)cc1 [Example 164]

["930 nM", "70 nM", "60 nM", "3150 nM", "270 nM", "4270 nM"]

Batch request: IC50 per item, same order as input.
1. O=S(=O)(c1ccc(Cl)cc1)N(Cc1ccc(-c2nnn[nH]2)cc1)C1CCc2cc(Cl)ccc21 (stereo not shown) [Example 179]
2. N#Cc1ccc(S(=O)(=O)N(Cc2ccc(NC(=O)C3(c4ccccc4)CC3)cc2)Cc2ccccn2)cc1 [Example 163]
3. CC(=O)N1C[C@@H]2[C@H](C1)[C@H]2NC(=O)c1ccc(CN(Cc2ccccc2)S(=O)(=O)c2ccc(Cl)cc2)cc1 [Example 118]
4. N#Cc1ccc(S(=O)(=O)N(Cc2ccc(C(=O)NC3(c4ccccc4)CC3)cc2)Cc2ccccn2)cc1 [Example 44]
5. COC(=O)[C@@H](NC(=O)c1ccc(CN(Cc2ccccn2)S(=O)(=O)c2ccc(Cl)cc2)cc1)c1ccccc1 [Example 342]
6. CCOc1ccc(S(=O)(=O)N(Cc2ccc(C(=O)NC3(c4ccccc4)CC3)c(OC)c2)Cc2ccccn2)cc1 [Example 189]

1. 8860 nM
2. 120 nM
3. 2610 nM
4. 33 nM
5. 54 nM
6. 280 nM

Please look at this compound and report its IC50: CCOc1ccc(S(=O)(=O)N(Cc2ccccc2)Cc2ccc(C(=O)NCC3CC3)cc2)cc1 [Example 18]
1680 nM

----------
target: UniProtKB P49682; test: Chemotaxis assay IP10, L1.2 recombinant cells expressing hCXCR3; assay type: cell-based; conditions: L1.2 hCXCR3 cells, IP10 around 0.3 nM, 4 hours
Parameter Measured: log10 IC50 (log10 of the value in µM)
Form field - Quantity: IC50; Unit: µM; Scale: log10

Consider the following illustrative entries.
Please look at this compound and report its log10 IC50: O=C(NC1(c2ccccc2)CC1)c1ccc(CN(Cc2ccccc2)S(=O)(=O)c2ccc(Cl)cc2)cc1
-0.62

Please look at this compound and report its log10 IC50: CC(C)(C)c1nc(CN(Cc2ccc(-c3nnn[nH]3)cc2)S(=O)(=O)c2ccc(Cl)cc2)no1
-0.60

Please look at this compound and report its log10 IC50: O=S(=O)(c1ccc(Cl)cc1)N(Cc1ccc(-c2nnc(O)o2)cc1)Cc1ccccn1
-0.16

Batch request: log10 IC50 per item, same order as input.
1. O=C(NC[C@@H]1CCCO1)c1ccc(CN(Cc2ccccc2)S(=O)(=O)c2ccc(Cl)cc2)cc1
2. O=C(NCc1cccc(Cl)c1)c1ccc(CN(Cc2ccccc2)S(=O)(=O)c2ccc(Cl)cc2)nc1
3. CCOc1ccc(S(=O)(=O)N(Cc2ccc(-c3nnn[nH]3)c(F)c2)Cc2ccccn2)cc1
4. O=C(NCc1cccs1)c1ccc(CN(Cc2ccccc2)S(=O)(=O)c2ccc(Cl)cc2)cc1

0.36
-0.43
-0.80
-0.72
